Assay: Toxicity liver stage against HepG2, at 10uM
Type: cell-based
Parameters: test concentration 10 uM, cell line HepG2-A16-CD81EGFP
Details: human, HepG2-A16-CD81EGFP cells; read-out: INHIBITION
cytotoxicity at 10 µM listing for selected molecules.
Could you give me the number in %? Just the number is fine.

| molecule | uom | cytotoxicity at 10 µM |
| --- | --- | --- |
| CCOC(=O)N1CCC(C(=O)Nc2nnc(C(F)(F)F)[nH]2)CC1 | % | -6.01 |
| CC(=O)c1cccc(OC(C)C(=O)Nc2cnn(CCN(C)C)c2)c1 (centres undefined) | % | 3.45 |

Measured cytotoxicity at 10 µM, `CN(C)CCO[C@H]1CN(C(=O)c2cccs2)[C@@H]2COC[C@H]12` : -3.83
